# System: Plasma
# test: Plasma concentration in patient with chronic noncirrhotic HCV at 420 to 700 mg administered 3 times per day
# Type: ADME, cell-free
# measurement parameters: human

>  <chemical string>
COc1cc([C@H]2Oc3cc([C@H]4Oc5cc(O)cc(O)c5C(=O)[C@@H]4O)ccc3O[C@@H]2CO)ccc1O

>  <concentration>
4.2 µM

$$$$

* * *

# test: Cmax in patient with chronic noncirrhotic HCV infection at 140 mg
# Format: ADME, organism-based
# Design: dose 140 mg
# measurement parameters: human, in vivo
Cmax listing for selected compounds.

>  <chemical string>
COc1cc([C@H]2Oc3cc([C@H]4Oc5cc(O)cc(O)c5C(=O)[C@@H]4O)ccc3O[C@@H]2CO)ccc1O

>  <Cmax>
40 ng/mL

$$$$
>  <chemical string>
COc1cc([C@@H]2Oc3cc([C@H]4Oc5cc(O)cc(O)c5C(=O)[C@@H]4O)ccc3O[C@H]2CO)ccc1O

>  <Cmax>
8 ng/mL

$$$$

// data source = ChEMBL document CHEMBL3526004
